# Procedure summary: Toxicity liver stage against HepG2, at 10uM
# Assay type: cell-based
# Set-up: test concentration 10 uM, cell line HepG2-A16-CD81EGFP
# Condition notes: human, HepG2-A16-CD81EGFP cells; read-out: INHIBITION

Compound | cytotoxicity at 10 µM, %
Cc1ccc(CNC(=O)NCc2csc(C)n2)cn1 | -8.24
CCc1ncc(C(=O)NCC2CCN(Cc3ccncc3)CC2)cn1 | 8.12
CC(=O)NCC(=O)NC1CCc2c(ccc(=O)n2CC2CC2)C1 (stereo not drawn) | 7.89
Cc1cnn(CC2CN(c3ncnc4ccsc34)CCO2)c1 (stereo not drawn) | 53.2
O=C(c1cccc(F)c1)N1CCOC(c2nc(-c3ncccn3)no2)C1 (stereo not drawn) | 5.3
O=c1cc(CN(CCO)C2CC2)nc2ccc(Br)cn12 | 12.5
O=C(CCn1cncn1)Nc1ccc(F)cc1OCC1CC1 | -2.58
O=C(c1cc(COc2ccc3c(c2)OCO3)[nH]n1)N1CCCCO1 | -2.47
CCCn1c(N2CCCC2)nc2c(C)nn(C)c2c1=O | 2.33
CC(c1nccs1)N(C)C(=O)c1cc(CN(C)Cc2ccccc2)on1 (stereo not drawn) | 12.2
Cc1csc(C(=O)N2CCC(O)(CN3CCc4ccccc4C3)C2)c1 (stereo not drawn) | -1.22
CCN(Cc1nc2c(cnn2C)c(=O)[nH]1)Cc1ccccc1C | -10.2
Cc1nn(C)c(N2CCOCC2)c1CNCc1ccc2c(c1)OCO2 | -17.8

---

# Procedure summary: Toxicity liver stage against HepG2, at 10uM
# Type: cell-based
# Parameters: test concentration 10 uM, cell line HepG2-A16-CD81EGFP
# Condition notes: human, HepG2-A16-CD81EGFP cells; read-out: INHIBITION
The entries below come with measured cytotoxicity at 10 µM values attached.

Compound | Units symbol | cytotoxicity at 10 µM
Cc1nc(O)c2nnn(C[C@H]3CCCN3C(=O)c3cccc(F)c3)c2n1 | % | -0.00161
CCC[C@@H]1CN(C(=O)c2cc3ccccc3cc2O)C[C@H]1N(C)C | % | -10.2
Cc1nc(C)n(C2CCCN(C(=O)c3ccc(NC4CC4)nc3)C2)n1 (configuration not stated) | % | -3.36
Cc1ccc2[nH]c3c(c2c1)CN(C(=O)CN(C)CC1OCCO1)CC3 | % | 6.5
CCCNC(=O)c1ccc(S(=O)(=O)NCC2(O)CCCNC2)cc1 (configuration not stated) | % | -48.3
CCC(=O)N1CCc2nc3cc(OC)c(OC)cc3c(=O)n2CC1 | % | 2.65
OC1CCN(c2ccnc(NCCc3ccccc3Cl)n2)C1 (configuration not stated) | % | 39.3

---

# Procedure summary: Toxicity liver stage against HepG2, at 10uM
# Type: cell-based
# Set-up: test concentration 10 uM, cell line HepG2-A16-CD81EGFP
# Condition notes: human, HepG2-A16-CD81EGFP cells; read-out: INHIBITION
We begin with a simple list: items and their reported cytotoxicity at 10 µM.
Readout: cytotoxicity at 10 µM

Molecule | Readout | Result
O=C(NCc1cc2n(n1)CCCNC2)C1(c2ccccc2)CCCCC1 | cytotoxicity at 10 µM | -10.6%
O=C(Cc1cccc(O)c1)N1CCCC(O)(CN2CCCC2)CC1 (stereo unspecified) | cytotoxicity at 10 µM | -4.68%
O=C(O)c1cc2c(c(S(=O)(=O)N(CCCO)c3ccccc3)c1)CCC2 | cytotoxicity at 10 µM | 6.58%
Cc1cc(N(C)C)nc(NCCn2cccn2)n1 | cytotoxicity at 10 µM | 5.65%
Cc1nnc(SCC(=O)NCC(c2ccccc2Cl)N(C)C)s1 (stereo unspecified) | cytotoxicity at 10 µM | 2.67%
O=C(c1ccc(=O)[nH]n1)N1CCCC1C1CCCC1 (stereo unspecified) | cytotoxicity at 10 µM | -7.09%
